Values compiled from the supplement of paper PMC10567573.

// reported protein stability index per item
# Method Notes: protein stability index of a GFP-peptide fusion (GPS, HEK-293T) (PSI 1-6); higher = more stable;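 also: 24-mer peptide tiles fused after GFP, lentivirally expressed, FACS-sorted into six equal bins by GFP/DsRed ratio, decoded by Illumina sequencing, PSI is the read-weighted mean bin number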
# Condition: treatment: MLN4924 1 uM, 8 h; c terminus: a fixed tail appended

- Item Sequence: "IIEELGEQRDQLERTKSRLVNTSE [VTI1B]"
  protein stability index: 4.63
- Item Sequence: "CSPTAHDRECKLPPPSAPASEYCP [WDR88]"
  protein stability index: 4.58
- Item Sequence: "GVLVEDSNNHHLMLEASEWATIEG [ZBED1]"
  protein stability index: 4.6
- Item Sequence: "SGSDVLDNVAYARAFNTDHQTQLL [RAD51]"
  protein stability index: 3.73
- Item Sequence: "LPLTARWEYMHSPSENSKEAEILE [CPOX]"
  protein stability index: 5.02

// query # input sequence: PVRCAGDWLPRGLGWGGRGAAVCA [ALG2] ; wanted: its protein stability index
// result 2.25

// query What about this sequence? SLLGDDVFSTMAGLEEADAEVSVI [FBF1]
// result 3.5

// query What about this sequence? IVADIELENVLDPDSFYELKSQPL [TFE3]
// result 3.09

---

// reported protein stability index per item
# Method Notes: protein stability index of a GFP-peptide fusion (GPS, HEK-293T) (PSI 1-6); higher = more stable
# Condition: treatment: MLN4924 1 uM, 8 h; c terminus: a fixed tail appended
Write the value as a bare number.

- Item Sequence: "EASNFQMDRKTRFIIHGFIDKGDE [PNLIPRP1]"
  Reported: 3.27
- Item Sequence: "HAVVEVEDVPLAAKLVDLPCVIES [TAF7L]"
  Reported: 4.03
- Item Sequence: "PSGNNGSVNWRTGSFHGPGHISLR [DLC1]"
  Reported: 3.01
- Item Sequence: "MKVEAKSHLQWQESRLKRSNPLAR [ZSCAN9]"
  Reported: 3.67
- Item Sequence: "SSSSECLEDSTMGSVADTVARVLR [PLK2]"
  Reported: 4.03

// query # input sequence: FTDTSIILFLNKKDLFEEKIKKSP [GNAI1] ; wanted: its protein stability index
// result 2.35

// query What about this sequence? LIVGRIAIGVSISLSSIATCVYIA [SLC2A12]
// result 3.01

// query What about this sequence? EIVGNLGEGTFGKVVECLDHARGK [CLK3]
// result 3.97

// query What about this sequence? KQEQSIISEYEKSLQFDEKCLSIM [RPAIN]
// result 3.69

---

# Method Notes: protein stability index of a GFP-peptide fusion (GPS, HEK-293T) (PSI 1-6); higher = more stable
# Condition: treatment: MLN4924 1 uM, 8 h; c terminus: a fixed tail appended
// reported protein stability index per item
Write the value as a bare number.

Would you please look over these solved cases?
- Item Sequence: "LTQWKDSLVSLVLYNMDLSDDHIR [ZER1]"
  Reported: 2.31
- Item Sequence: "GKRMEFTSSCPNVSERSFDNVRSL [CRYBA1]"
  Reported: 4.17
- Item Sequence: "EKEFMKGNQLISNNIKFKKSSILT [CLCN6]"
  Reported: 3.48

// query # input sequence: MSEGKPPDKKKRPRRSLSISKNKK [FAN1] ; wanted: its protein stability index
// result 5.07

// query What about this sequence? RMPDEDSKIDHYVLEYRRTNFEGP [FSD1]
// result 3.79

// query What about this sequence? KIGNSAFARYPNGVVVHYFCSKEV [VPS39]
// result 2.33

// query What about this sequence? DDALEDFKKVLDLNPGFQDATLSL [TTC32]
// result 3.85

// query What about this sequence? DEIYRVLRYVNSTRAPQRAHEVLQ [FBXO28]
// result 2.44

// query What about this sequence? DINLNSPNKGLLSDSMTDVPVDTG [TPD52L2]
// result 4.51

// query What about this sequence? YRAALRSCSLVLEHQPDNIKALFR [FKBP8]
// result 2.27

// query What about this sequence? KILGYLNTNVLSRDLIPPHVNFSH [SLC6A17]
// result 2.38

// query What about this sequence? LGEVAYHDYHGILVDEEEKVLIQK [ADD1]
// result 4.74

// query What about this sequence? QGYVSDIRRFLSAFHEPQVGLIQA [DFFB]
// result 2.38

// query What about this sequence? DQCKINKQIYNLIHLDPRTREGFT [FEM1B]
// result 2.52

// query What about this sequence? ARKRKNRRLKQAKEEAQAEIEQYR [ATP6V1G1]
// result 5.13

// query What about this sequence? LKKAKVQVERMREVNSRCYQPEPF [FBXO34]
// result 2.84

// query What about this sequence? LLPRQPLPLGIKVYEDETKVVHAV [PALM]
// result 3.48

// query What about this sequence? RDEAIYECVASNNVGEISVSTRLT [PTPRD]
// result 3.91

// query What about this sequence? DVKAMGPLVLTEVLFNEKIREQIK [EIF5]
// result 2.28

// query What about this sequence? MENQVLTPHVYWAQRHRELYLRVE [HACD3]
// result 2.35

// query What about this sequence? VGVAGLISPWNLPLYLLTWKIAPA [ALDH8A1]
// result 2.88

// query What about this sequence? ARICRLLKHPNIVRLHDSISEEGH [CAMK2A]
// result 2.84

// query What about this sequence? PGQVAGADFESEDEGEEFDDWEDD [EID1]
// result 5.59

// query What about this sequence? SLIQLLGRNFILFIIFGTMEEMQN [HACD3]
// result 3.01

// query What about this sequence? TWRLPDVSEAGGSGRLSASWEPLS [FCHO1]
// result 3.24

---

// reported protein stability index per item
# Method Notes: protein stability index of a GFP-peptide fusion (GPS, HEK-293T) (PSI 1-6); higher = more stable
# Condition: treatment: DMSO; c terminus: a fixed tail appended
Write the value as a bare number.

Would you please look over these solved cases?
- Item Sequence: "DPPLSQDERTHRSDRPFKCNQCGK [ZNF8]"
  protein stability index: 5.01
- Item Sequence: "PRALIFSTDDFFFREDGAYEFNPD [N4BP2L1]"
  protein stability index: 2.95
- Item Sequence: "FKAYIKIYQGEDLPHPKSMLQATA [ATL3]"
  protein stability index: 2.78
- Item Sequence: "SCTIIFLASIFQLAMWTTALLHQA [TMEM175]"
  protein stability index: 2.5

// query # input sequence: AAATTTTTTSAATATTAPPALDIF [SNAP91] ; wanted: its protein stability index
// result 4.45

// query What about this sequence? DKALMIAMEYAPGGTLAEFIQKRC [NEK8]
// result 2.39

// query What about this sequence? FVSALGITAGAHRLWSHRSYKARL [SCD]
// result 2.73

// query What about this sequence? IVTVHYGCASFIYLRPQSNYSSSQ [OR10K2]
// result 2.92

// query What about this sequence? EEPSKYGVVVCEADTGRIHRFVEK [GMPPB]
// result 3.94

// query What about this sequence? DVTAKNIWLAESVLDILTEQREWV [INTS3]
// result 2.3

// query What about this sequence? FKDKLEETKGQINNSIKDLTDGHF [SERPINB5]
// result 4.42

// query What about this sequence? IGGSGFLGQHMVEQLLARGYAVNV [NSDHL]
// result 2.16

// query What about this sequence? MEIATYRKLLESEECRMSGEFPSP [KRT71]
// result 3.91

---

# Method Notes: protein stability index of a GFP-peptide fusion (GPS, HEK-293T) (PSI 1-6); higher = more stable
# Condition: treatment: DMSO; c terminus: a fixed tail appended
// reported protein stability index per item
Write the value as a bare number.

- Item Sequence: "WVLSIDGENAGSLTHIEAQNKIRA [PDLIM7]"
  Reported: 3.02
- Item Sequence: "YGRDSFVRLLLEFKAEVDPLSDKG [ASB7]"
  Reported: 2.65
- Item Sequence: "ESKIREHLEKKGPQVRDWSHYFKI [KRT18]"
  Reported: 2.82
- Item Sequence: "DGPCHKRRASICCTQLGSLSALKH [SCARA5]"
  Reported: 3.79
- Item Sequence: "PLMVKGFRDAAEEGGTAVTGGQTV [SEPHS2]"
  Reported: 5.05
- Item Sequence: "QYEKYSFRGFPPEDLMPLAAAYGH [P3H4]"
  Reported: 3.01

Shifting focus to the sequence that follows.
// query # input sequence: TTVPDGPTQLRALNLTEGFAVLHW [TNXB] ; wanted: its protein stability index
// result 2.18

---

# Method Notes: protein stability index of a GFP-peptide fusion (GPS, HEK-293T) (PSI 1-6); higher = more stable
# Condition: treatment: DMSO; c terminus: a fixed tail appended
Result Type: protein stability index

// query # input sequence: HLDHYYQEELPALLKALVSELSEH [FCHSD1] ; wanted: its protein stability index
// result 2.3

// query What about this sequence? IYNSHLVVHQRVHSGEKPYKCSDC [ZNF232]
// result 2.9

// query What about this sequence? PVRPVSRGCLHSHGLQEGKDLFTQ [CDC25A]
// result 3.15

// query What about this sequence? RKFSRLSCLRRRRHPPKVGDDSDL [SMG5]
// result 4.08

// query What about this sequence? TSGGSNIIYVASNHFVWRLIPVPM [VPS39]
// result 2.44

// query What about this sequence? GGLSLHDYKLLKPSLAVNLADPYR [JUNB]
// result 2.65

// query What about this sequence? AAKLLNVDPDNVVLCLLAADEDDD [GADD45A]
// result 3.68

// query What about this sequence? CRMSIRRVMPTQEVQELPIPSKLL [WSB1]
// result 2.42

// query What about this sequence? IFRCFCPVFLHSQMLWELVLLGEP [DENND6A]
// result 3.17

// query What about this sequence? YRDYGHSRRDESYSRGYRNRRSSR [RBMY1A1]
// result 4.75

// query What about this sequence? ESFFVDYEENEGAGPYLLNGSYLE [ADAMTSL2]
// result 3.66

// query What about this sequence? ELDGPKQIFFGRRKDMIAEKLAPS [ZNF396]
// result 3.62

// query What about this sequence? SASECMQDFNTMFTNCYIYNKPTD [BRD3]
// result 3.1

// query What about this sequence? EYTLTGLKFDMKYMNFRVKACNKA [FSD1]
// result 2.79
